The reported numbers originate from ChEMBL document CHEMBL5291721.

Heads up, these compounds all have AC50 values measured for 5-hydroxytryptamine receptor 2C (Homo sapiens, UniProt P28335).

compound: CN1CC[C@]23CCCC[C@H]2[C@H]1Cc1ccc(O)cc13 [LEVORPHANOL]
assay result: > 30 µM
//
compound: CCCCCCCCOc1ccccc1C(=O)Nc1ccc(C(=O)OCC[N+](C)(CC)CC)cc1 [OTILONIUM BROMIDE]
assay result: 1.1 µM
//
compound: CC1=CC(=O)c2ccccc2C1=O [MENADIONE]
assay result: > 30 µM
//
compound: N[C@@H](CSCC(=O)O)C(=O)O [CARBOCYSTEINE]
assay result: > 30 µM
//
compound: CC(C)C(=O)OCC(=O)[C@@]12O[C@H](C3CCCCC3)O[C@@H]1C[C@H]1[C@@H]3CCC4=CC(=O)C=C[C@]4(C)[C@H]3[C@@H](O)C[C@@]12C [CICLESONIDE]
assay result: > 30 µM
//
compound: CC(=O)OCC(=O)[C@@]12OC3(CCCC3)O[C@@H]1C[C@H]1[C@@H]3CCC4=CC(=O)C=C[C@]4(C)[C@@]3(F)[C@@H](O)C[C@@]12C [AMCINONIDE]
assay result: > 30 µM
//
compound: Cc1nc2ccc(CN(C)c3ccc(C(=O)N[C@@H](CCC(=O)O)C(=O)O)s3)cc2c(=O)[nH]1 [RALTITREXED]
assay result: > 30 µM
//
compound: N[C@@H](C(=O)N[C@@H]1C(=O)N2C(C(=O)O)=C(Cl)CS[C@H]12)c1ccccc1 [CEFACLOR ANHYDROUS]
assay result: > 10 µM

Provide AC50 values for the following items, in order.
1. C=C1C[C@@H]2[C@H](CC[C@]3(C)C(=O)CC[C@@H]23)[C@@]2(C)C=CC(=O)C=C12 [EXEMESTANE]
2. CN1CCN(C(=O)OC2c3nccnc3C(=O)N2c2ccc(Cl)cn2)CC1 (stereo not given) [ZOPICLONE]
3. CC(C)NCC1CCc2cc(CO)c([N+](=O)[O-])cc2N1 (stereo not given) [OXAMNIQUINE]
4. O=C(O)c1cc(-c2ccc(F)cc2F)ccc1O [DIFLUNISAL]
5. CCCCOc1cc(C(=O)NCCN(CC)CC)c2ccccc2n1 [DIBUCAINE]
6. CCCC(=O)N1CCCN(c2nc(N)c3cc(OC)c(OC)cc3n2)CC1 [BUNAZOSIN]
7. CCCCC(C)(O)C/C=C/[C@H]1[C@H](O)CC(=O)[C@@H]1CCCCCCC(=O)OC (stereo not given in full) [MISOPROSTOL]
8. CN1C(=O)CC(C)(c2ccccc2)C1=O (stereo not given) [METHSUXIMIDE]

["> 30 µM", "> 10 µM", "> 30 µM", "> 30 µM", "> 30 µM", "> 30 µM", "> 10 µM", "> 30 µM"]
